System: GCaMP5-expressing T. gondii
Construct: whole extracellular parasites expressing GCaMP5 Ca2+ sensor
Parameters: species or system GCaMP5-expressing Toxoplasma gondii, extracellular; GCaMP5 fluorescence (cytosolic Ca2+) after 100 uM zaprinast in compound-pretreated extracellular parasites, background-subtracted, relative to zaprinast alone
assay_setup: 100 uM zaprinast stimulation; 10 min pretreatment; mean of two replicates; 0.23 h
property: fold change in fluorescence relative to zaprinast alone
Provide a numeric answer; units are not to be included.

Example molecules with recorded fold change in fluorescence relative to zaprinast alone:
# molecule, tested_on, test_value
rows = [
    ("CCn1c(-c2nonc2N)nc2cncc(C(=O)N3CC[C@H](N)C3)c21 [SB-772077-B]", "GCaMP5-expressing T. gondii", 1.135),
    ("Cc1cc(O)cc(C)c1/C=C/c1cncc(C(=O)OC(C)(C)C)c1 [GW439255X]", "GCaMP5-expressing T. gondii", 1.014),
    ("Nc1nccc(-c2c(-c3ccc(F)cc3)nn3cc(C(F)(F)F)ccc23)n1 [GW568326X]", "GCaMP5-expressing T. gondii", 1.261),
]

--- query ---
Task: Value lookup for fold change in fluorescence relative to zaprinast alone; key = Cc1ccc(NC(=O)c2cccc(N3CCCCC3)c2)cc1-c1ccc(C(=O)NCC2CC2)cc1 [GSK1917008A]
Output: 1.193

###

In this section, each of the molecules is paired with its reported fold change in fluorescence relative to zaprinast alone.
Tested on: GCaMP5-expressing T. gondii
Construct: whole extracellular parasites expressing GCaMP5 Ca2+ sensor
Parameters: species or system GCaMP5-expressing Toxoplasma gondii, extracellular; GCaMP5 fluorescence (cytosolic Ca2+) after 100 uM zaprinast in compound-pretreated extracellular parasites, background-subtracted, relative to zaprinast alone
assay_setup: 100 uM zaprinast stimulation; 10 min pretreatment; mean of two replicates; 0.23 h
Provide a numeric answer; units are not to be included.

Example molecules with recorded fold change in fluorescence relative to zaprinast alone:
# molecule, test_value
data = [
    ("Cc1ccnc2ccc(-c3sc(N)nc3-c3ccccn3)nc12 [GW777257X]", 1.011),
    ("c1ccc(COc2ccc(Nc3ncnc4ccc(-c5ccco5)cc34)cc2)cc1 [GW284372X]", 0.7189),
    ("CCn1c(-c2nonc2N)nc2c(C#CC(C)(C)O)nc(OCCNC)cc21 [GSK949675A]", 1.152),
    ("NC(=O)c1sc(-n2cnc3ccccc32)cc1OCc1ccccc1Br [GSK1023156A]", 0.8843),
]

Task: Value lookup for fold change in fluorescence relative to zaprinast alone; key = `Nc1ncnc2scc(-c3ccc(NC(=O)Cc4cc(F)ccc4F)cc3)c12`
Output: 1.242

###

In this section, each of the compounds is paired with its reported fold change in fluorescence relative to zaprinast alone.
Tested on: GCaMP5-expressing T. gondii
Construct: whole extracellular parasites expressing GCaMP5 Ca2+ sensor
Set-up: species or system GCaMP5-expressing Toxoplasma gondii, extracellular; GCaMP5 fluorescence (cytosolic Ca2+) after 100 uM zaprinast in compound-pretreated extracellular parasites, background-subtracted, relative to zaprinast alone
assay_setup: 100 uM zaprinast stimulation; 10 min pretreatment; mean of two replicates; 0.23 h
Method: GCaMP5-expressing parasites were suspended in Ringer's solution at 4 × 10^7 parasites/ml, and 50 μl of parasites were applied to each well of a 96-well plate (Costar, catalog no. 3631). […] Parasites were then treated with 100 μM zaprinast or 0.1% DMSO as a vehicle control and incubated at 37 °C with 5% CO2 for an additional 4 min before measuring fluorescence with excitation and emission wavelengths of 485 and 525 nm, respectively, on a SpectraMax M3 (Molecular Devices). […]
Provide a numeric answer; units are not to be included.

Example compounds with recorded fold change in fluorescence relative to zaprinast alone:
# compound, test_value
data = [
    ("CN1CCN(CCCNc2nccc(-c3c(-c4ccc(F)cc4)nn4cc(C(N)=O)ccc34)n2)CC1 [GW622475X]", 0.5684),
    ("Fc1ccc(-c2nn3ccccc3c2-c2ccncc2)cc1 [GW434756X]", 0.1696),
    ("O=C(Nc1n[nH]c2nc(-c3ccccc3)ccc12)C1CC1 [SB-708999]", 1.075),
    ("COc1cc2c(Nc3cccc(NC(=O)c4ccccc4)c3)ncnc2cc1OCCCN1CCOCC1 [GSK223810A]", 1.471),
    ("NCc1ccc(-n2c(-c3nonc3N)nc3cnccc32)cc1 [SB-750140]", 1.416),
]

Task: Recall the recorded fold change in fluorescence relative to zaprinast alone for CN(C)CCOc1ccc(-c2cc(-c3cn[nH]c3-c3ccccn3)ccn2)cc1 [GW835314X] with GCaMP5-expressing T. gondii and state it.
Output: 0.7262

Task: Recall the recorded fold change in fluorescence relative to zaprinast alone for Cc1ccc(C(=O)NC(C)C)cc1-c1ccc(C(=O)NCC2CC2)cc1 [GW785974X] with GCaMP5-expressing T. gondii and state it.
Output: 1.119

Task: Recall the recorded fold change in fluorescence relative to zaprinast alone for COc1ccc2cc(-c3c(-c4ccncc4)nc(-c4ccc(SC)cc4C)n3C)ccc2c1 [SB-625086-M] with GCaMP5-expressing T. gondii and state it.
Output: 0.941

Task: Recall the recorded fold change in fluorescence relative to zaprinast alone for FC(F)(F)c1ccc(-c2nn3ncccc3c2-c2ccnc(Nc3cccc(C(F)(F)F)c3)n2)cc1 [GW828205X] with GCaMP5-expressing T. gondii and state it.
Output: 0.4128
